Tested on: HCT-116
Test: Cancer cell growth inhibition, HCT-116
Type: cell-based
Conditions: Homo sapiens; Colorectal, HCT-116, cell viability, 72 h
Text: Cell culture-based assays were used to evaluate the ability of compounds of the invention to inhibit cancer cell growth inhibition. Cells were obtained from the American Type Culture Collection (ATCC) and European Collection of Cell Cultures (ECACC). Cells were thawed in their appropriate media plus supplements (see table below). […] Prior to seeding at defined cell concentration, cells were recovered in medium, centrifuged and taken up in medium, and counted. […]
value type: EC50

COc1cc(OC)c2c(-c3ccc(OC(C)=O)c(OC(C)=O)c3)cn(CC(=O)c3ccc(OC(C)=O)c(OC(C)=O)c3)c2c1 :: 64 µM

Which EC50 value belongs to COc1cc(OC)c2c(-c3ccc(O)c(O)c3)cn(CC(=O)c3ccc(O)c(O)c3)c2c1 ?
96 µM

Which EC50 value belongs to O=C(Cn1cc(-c2ccc(O)cc2)c2c(F)cc(F)cc21)c1ccc(O)cc1 ?
37 µM

Which EC50 value belongs to COc1cc(OC)c2c(-c3ccc(O)cc3)cn(CC(=O)c3ccc(O)cc3)c2c1 ?
5.7 µM

Which EC50 value belongs to COc1ccc2c(-c3ccc(O)c(O)c3)cn(CC(=O)c3ccc(O)c(O)c3)c2c1 ?
51 µM

Which EC50 value belongs to COc1cc(OC)c2c(-c3ccc(O)c(O)c3O)cn(CC(=O)c3ccc(O)c(O)c3O)c2c1 ?
22 µM

====

This listing pairs compounds with measured EC50.
Tested on: Daoy
Experiment: Cancer cell growth inhibition, Daoy
Format: cell-based
Details: Homo sapiens, Brain, cell viability, 72 h
Entry rule: numbers only, all in µM.

Field: example entries. Status: answers known.
COc1cc(OC)c2c(-c3ccc(OC(C)=O)c(OC(C)=O)c3)cn(CC(=O)c3ccc(OC(C)=O)c(OC(C)=O)c3)c2c1 [Example 30] :: 50
O=C(Cn1cc(-c2ccc(O)cc2)c2c(F)cc(F)cc21)c1ccc(O)cc1 [Example 16] :: 50
COc1cc(OC)c2c(-c3ccc(O)c(O)c3O)cn(CC(=O)c3ccc(O)c(O)c3O)c2c1 [Example 11] :: 6.6
COc1ccc2c(-c3ccc(O)c(O)c3)cn(CC(=O)c3ccc(O)c(O)c3)c2c1 [Example 4] :: 47

Which EC50 value belongs to COc1cc(OC)c2c(-c3ccc(O)cc3)cn(CC(=O)c3ccc(O)cc3)c2c1 [Example 6] ?
4.2

Which EC50 value belongs to COc1cc(OC)c2c(-c3ccc(O)c(O)c3)cn(CC(=O)c3ccc(O)c(O)c3)c2c1 [Example 8] ?
50

====

Tested on: RCC-7860
Assay: Cancer cell growth inhibition, RCC-7860
Format: cell-based
Details: Renal, RCC-7860, cell viability, 72 h
value type: pEC50
pEC50 is defined as minus the log10 of a concentration measured in mol/L.

Which pEC50 value belongs to COc1cc(OC)c2c(-c3ccc(O)cc3)cn(CC(=O)c3ccc(O)cc3)c2c1 [Example 6] ?
4.92

====

This listing pairs molecules with measured pEC50.
Test system: CCFR-CEM
Assay: Cancer cell growth inhibition, CCFR-CEM
Type: cell-based
Conditions: Hematologic, cell viability, 72 h
pEC50 is defined as minus the log10 of a concentration measured in mol/L.

Field: example entries. Status: answers known.
COc1cc(OC)c2c(-c3ccc(O)c(O)c3)cn(CC(=O)c3ccc(O)c(O)c3)c2c1 :: 4.47
COc1cc(OC)c2c(-c3ccc(O)cc3)cn(CC(=O)c3ccc(O)cc3)c2c1 :: 5.20

Which pEC50 value belongs to O=C(Cn1cc(-c2ccc(O)cc2)c2c(F)cc(F)cc21)c1ccc(O)cc1 ?
4.24

Which pEC50 value belongs to COc1cc(OC)c2c(-c3ccc(O)c(O)c3O)cn(CC(=O)c3ccc(O)c(O)c3O)c2c1 ?
5.12

Which pEC50 value belongs to COc1cc(OC)c2c(-c3ccc(OC(C)=O)c(OC(C)=O)c3)cn(CC(=O)c3ccc(OC(C)=O)c(OC(C)=O)c3)c2c1 ?
4.40

Which pEC50 value belongs to COc1ccc2c(-c3ccc(O)c(O)c3)cn(CC(=O)c3ccc(O)c(O)c3)c2c1 ?
4.35

====

Test system: PC3
Assay: Cancer cell growth inhibition, PC3
Type: cell-based
Settings: Homo sapiens, PC-3; Prostate, PC3, cell viability, 72 h
This listing pairs compounds with measured EC50.
Entry rule: numbers only, all in µM.

Field: example entries. Status: answers known.
COc1cc(OC)c2c(-c3ccc(O)cc3)cn(CC(=O)c3ccc(O)cc3)c2c1 [Example 6] :: 51
O=C(Cn1cc(-c2ccc(O)cc2)c2c(F)cc(F)cc21)c1ccc(O)cc1 [Example 16] :: 83
COc1cc(OC)c2c(-c3ccc(O)c(O)c3O)cn(CC(=O)c3ccc(O)c(O)c3O)c2c1 [Example 11] :: 26

Please examine the following record next.
Which EC50 value belongs to COc1cc(OC)c2c(-c3ccc(O)c(O)c3)cn(CC(=O)c3ccc(O)c(O)c3)c2c1 [Example 8] ?
48

====

This listing pairs compounds with measured EC50.
System: SK-HEP-1
Assay: Cancer cell growth inhibition, SK-HEP-1
Assay type: cell-based
Conditions: Homo sapiens, SK-HEP1; Liver, SK-HEP-1, cell viability, 72 h
Entry rule: numbers only, all in µM.

Field: example entries. Status: answers known.
COc1cc(OC)c2c(-c3ccc(O)cc3)cn(CC(=O)c3ccc(O)cc3)c2c1 :: 31
COc1cc(OC)c2c(-c3ccc(OC(C)=O)c(OC(C)=O)c3)cn(CC(=O)c3ccc(OC(C)=O)c(OC(C)=O)c3)c2c1 :: 39

Please examine the following record next.
Param readout = EC50; param system = SK-HEP-1; param query = O=C(Cn1cc(-c2ccc(O)cc2)c2c(F)cc(F)cc21)c1ccc(O)cc1 ; response: value
35

====

Form: system (Human DNMT1 (Homo sapiens)), quantity (pIC50), values below.
pIC50 is defined as minus the log10 of a concentration measured in mol/L.

COc1cc(OC)c2c(-c3ccc(O)cc3)cn(CC(=O)c3ccc(O)cc3)c2c1 [Example 27] :: 4.33
COc1cccc(N(CC(=O)c2ccc(O)c(O)c2O)CC(=O)c2ccc(O)c(O)c2O)c1 [Example 23] :: 4.56
COc1ccc(OC)c2c1c(-c1ccc(O)cc1)cn2CC(=O)c1ccc(O)cc1 [Example 13] :: 4.01
COc1cc2c(cc1O)c(-c1ccc(O)cc1)cn2CC(=O)c1ccc(O)cc1 [Example 15] :: 3.24
COc1ccc2c(-c3ccc(O)c(O)c3)cn(CC(=O)c3ccc(O)c(O)c3)c2c1 [Example 4] :: 4.86

Please examine the following record next.
Param readout = pIC50; param system = Human DNMT1 (Homo sapiens); param query = COc1cc(OC)c2c(-c3ccc(F)cc3)cn(CC(=O)c3ccc(F)cc3)c2c1 [Example 12] ; response: value
Sequence (P26358 2-1632 isoform P26358-2): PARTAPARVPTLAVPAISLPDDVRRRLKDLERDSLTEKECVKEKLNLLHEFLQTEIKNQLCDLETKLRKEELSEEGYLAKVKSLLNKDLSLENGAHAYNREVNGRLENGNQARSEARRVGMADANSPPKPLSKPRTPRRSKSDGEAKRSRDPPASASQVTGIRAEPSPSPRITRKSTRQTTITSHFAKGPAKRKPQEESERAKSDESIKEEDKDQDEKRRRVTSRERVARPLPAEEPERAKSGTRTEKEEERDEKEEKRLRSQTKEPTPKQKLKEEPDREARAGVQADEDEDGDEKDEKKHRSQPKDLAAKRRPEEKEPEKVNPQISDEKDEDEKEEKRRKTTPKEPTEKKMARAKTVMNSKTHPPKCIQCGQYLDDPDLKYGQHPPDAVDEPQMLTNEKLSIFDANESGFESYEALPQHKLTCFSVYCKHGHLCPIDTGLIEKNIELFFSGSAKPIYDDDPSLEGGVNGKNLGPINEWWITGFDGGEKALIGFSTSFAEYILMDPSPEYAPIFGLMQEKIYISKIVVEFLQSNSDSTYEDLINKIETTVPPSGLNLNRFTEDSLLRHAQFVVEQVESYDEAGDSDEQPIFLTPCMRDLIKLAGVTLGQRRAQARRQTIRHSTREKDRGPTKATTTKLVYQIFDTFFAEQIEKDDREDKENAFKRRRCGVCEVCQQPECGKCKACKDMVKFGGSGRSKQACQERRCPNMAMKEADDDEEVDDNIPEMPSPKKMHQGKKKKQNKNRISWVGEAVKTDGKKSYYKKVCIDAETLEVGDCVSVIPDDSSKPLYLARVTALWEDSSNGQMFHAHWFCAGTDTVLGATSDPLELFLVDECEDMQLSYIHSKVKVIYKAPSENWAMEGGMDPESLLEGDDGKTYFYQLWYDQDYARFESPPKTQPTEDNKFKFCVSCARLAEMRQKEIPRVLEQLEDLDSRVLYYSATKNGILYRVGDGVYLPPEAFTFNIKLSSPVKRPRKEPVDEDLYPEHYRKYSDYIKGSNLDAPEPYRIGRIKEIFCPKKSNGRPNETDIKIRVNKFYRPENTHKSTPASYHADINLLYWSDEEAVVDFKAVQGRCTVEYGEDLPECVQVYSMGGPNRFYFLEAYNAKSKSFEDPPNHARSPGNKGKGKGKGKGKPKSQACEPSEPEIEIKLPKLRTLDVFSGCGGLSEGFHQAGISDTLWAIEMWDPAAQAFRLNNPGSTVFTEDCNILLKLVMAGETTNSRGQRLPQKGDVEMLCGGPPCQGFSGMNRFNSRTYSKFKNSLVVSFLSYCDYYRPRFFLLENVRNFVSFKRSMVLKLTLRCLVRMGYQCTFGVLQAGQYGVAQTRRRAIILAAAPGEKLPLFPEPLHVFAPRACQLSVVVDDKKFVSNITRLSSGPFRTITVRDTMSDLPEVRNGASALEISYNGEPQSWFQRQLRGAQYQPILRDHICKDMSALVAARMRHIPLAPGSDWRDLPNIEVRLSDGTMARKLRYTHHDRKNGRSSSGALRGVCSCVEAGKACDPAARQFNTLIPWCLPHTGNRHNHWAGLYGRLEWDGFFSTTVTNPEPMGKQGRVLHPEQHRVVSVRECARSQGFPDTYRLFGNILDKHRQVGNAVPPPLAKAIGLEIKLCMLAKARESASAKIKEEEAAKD
3.98

====

Test system: T47D
Test: Cancer cell growth inhibition, T47D
Type: cell-based
Conditions: Homo sapiens, Breast, cell viability, 72 h
value type: EC50 (µM)
Entry rule: numbers only, all in µM.

Field: example entries. Status: answers known.
COc1cc(OC)c2c(-c3ccc(O)c(O)c3O)cn(CC(=O)c3ccc(O)c(O)c3O)c2c1 :: 30
O=C(Cn1cc(-c2ccc(O)cc2)c2c(F)cc(F)cc21)c1ccc(O)cc1 :: 31
COc1cc(OC)c2c(-c3ccc(O)cc3)cn(CC(=O)c3ccc(O)cc3)c2c1 :: 11

Please examine the following record next.
Which EC50 value belongs to COc1cc(OC)c2c(-c3ccc(OC(C)=O)c(OC(C)=O)c3)cn(CC(=O)c3ccc(OC(C)=O)c(OC(C)=O)c3)c2c1 ?
47

====

System: HT-1080
Test: Cancer cell growth inhibition, HT-1080
Assay type: cell-based
Details: Homo sapiens; HT-1080, cell viability, 72 h
value type: EC50 (µM)
Entry rule: numbers only, all in µM.

COc1cc(OC)c2c(-c3ccc(O)c(O)c3O)cn(CC(=O)c3ccc(O)c(O)c3O)c2c1 :: 20
O=C(Cn1cc(-c2ccc(O)cc2)c2c(F)cc(F)cc21)c1ccc(O)cc1 :: 52
COc1cc(OC)c2c(-c3ccc(O)cc3)cn(CC(=O)c3ccc(O)cc3)c2c1 :: 9.7

Please examine the following record next.
Which EC50 value belongs to COc1ccc2c(-c3ccc(O)c(O)c3)cn(CC(=O)c3ccc(O)c(O)c3)c2c1 ?
31

====

This listing pairs compounds with measured pEC50.
Test system: RPMI-8226
Test: Cancer cell growth inhibition, RPMI-8226
Format: cell-based
Details: Homo sapiens; Multiple Myelome, RPMI-8226, cell viability, 72 h
pEC50 is defined as minus the log10 of a concentration measured in mol/L.

O=C(Cn1cc(-c2ccc(O)cc2)c2c(F)cc(F)cc21)c1ccc(O)cc1 :: 4.19
COc1cc(OC)c2c(-c3ccc(OC(C)=O)c(OC(C)=O)c3)cn(CC(=O)c3ccc(OC(C)=O)c(OC(C)=O)c3)c2c1 :: 4.44
COc1cc(OC)c2c(-c3ccc(O)cc3)cn(CC(=O)c3ccc(O)cc3)c2c1 :: 5.19

Please examine the following record next.
Which pEC50 value belongs to COc1cc(OC)c2c(-c3ccc(O)c(O)c3O)cn(CC(=O)c3ccc(O)c(O)c3O)c2c1 ?
4.22
